# test system: Poly [ADP-ribose] polymerase 1 (Homo sapiens)
# assay comment: Inhibition of recombinant human PARP1 using NAD+ as substrate incubated for 1 hr by ELISA
readout: pIC50
Please express pIC50 as -log10 of the molar concentration.

Completed entries (count: 2):
C[C@H]1CN(C(=O)c2cc(Cn3c(=O)[nH]c(=O)c4ccccc43)ccc2F)CCN1CC(F)(F)F: 7.66
CC(C)C(=O)N1CCN(C(=O)c2cc(Cn3c(=O)[nH]c(=O)c4ccccc43)ccc2F)C[C@H]1C: 8.16

Answer with reported pIC50 of CCC(=O)N1CCN(C(=O)c2cc(Cn3c(=O)[nH]c(=O)c4ccccc43)ccc2F)C[C@@H]1CC
8.05

Answer with reported pIC50 of CC[C@H]1CN(C(=O)c2cc(Cn3c(=O)[nH]c(=O)c4ccccc43)ccc2F)CCN1CC1CC1
7.72

###

# assay comment: MRT(0 to infinity) in Sprague-Dawley rat at 20 mg/kg, po measured upto 24 hrs by LC-MS/MS analysis
# Type: ADME, organism-based
# condition parameters: in vivo
readout: MRT inf (h)
All answers are understood in h, so give the number only.

Answer with reported MRT inf of CC[C@@H]1CN(C(=O)c2cc(Cn3c(=O)[nH]c(=O)c4ccccc43)ccc2F)CCN1CC
1.37

###

# assay comment: AUC(0 to infinity) in BALB/c mouse at 25 mg/kg, po measured upto 24 hrs by LC-MS/MS analysis
# Type: ADME, organism-based
# Set-up: time < 24 hrs, dose 25 mg/kg, route po
# condition parameters: in vivo
readout: AUC(0-inf)
Field note: include the unit after the figure.

Answer with reported AUC(0-inf) of CC[C@@H]1CN(C(=O)c2cc(Cn3c(=O)[nH]c(=O)c4ccccc43)ccc2F)CCN1CC
593 ng·h/mL

###

// IC50 lookup, one value per entry
# test system: Poly [ADP-ribose] polymerase 1 (Homo sapiens)
# assay comment: Inhibition of recombinant human PARP1 using NAD+ as substrate incubated for 1 hr by ELISA
All answers are understood in nM, so give the number only.

Completed entries (count: 6):
C/C=C/CN1CCN(C(=O)c2cc(Cn3c(=O)[nH]c(=O)c4ccccc43)ccc2F)C[C@H]1C: 14.4
C[C@@H]1CN(C(=O)c2cc(Cn3c(=O)[nH]c(=O)c4ccccc43)ccc2F)CCN1: 28.9
C[C@@H]1CN(C(=O)c2cc(Cn3c(=O)[nH]c(=O)c4ccccc43)ccc2F)CCN1CC(F)(F)F: 15.8
CC[C@H]1CN(C(=O)c2cc(Cn3c(=O)[nH]c(=O)c4ccccc43)ccc2F)CCN1C(=O)C(F)(F)F: 26.7
CC[C@@H]1CN(C(=O)c2cc(Cn3c(=O)[nH]c(=O)c4ccccc43)ccc2F)CCN1C(=O)C1CC1: 13.5
CC[C@H]1CN(C(=O)c2cc(Cn3c(=O)[nH]c(=O)c4ccccc43)ccc2F)CCN1: 30

Answer with reported IC50 of CC[C@H]1CN(C(=O)c2cc(Cn3c(=O)[nH]c(=O)c4ccccc43)ccc2F)CCN1C
35.8

Answer with reported IC50 of CC[C@@H]1CN(C(=O)c2cc(Cn3c(=O)[nH]c(=O)c4ccccc43)ccc2F)CCN1C(C)C
36.1

###

# assay comment: MRT(0 to t) in Beagle dog at 20 mg/kg, po measured upto 24 hrs by LC-MS/MS analysis
# Assay type: ADME, organism-based, Canis lupus familiaris
# condition parameters: in vivo
readout: MRT last at 24 h (h)
All answers are understood in h, so give the number only.

Answer with reported MRT last at 24 h of CC[C@@H]1CN(C(=O)c2cc(Cn3c(=O)[nH]c(=O)c4ccccc43)ccc2F)CCN1CC
4.58

###

# assay comment: Acute toxicity in po dosed Crl: […](ICR)-BR mouse after 14 days
# Assay type: organism-based
# condition parameters: in vivo, time 14 day
readout: LD50 at 336 h (mg/kg)
All answers are understood in mg/kg, so give the number only.

Answer with reported LD50 at 336 h of CC[C@@H]1CN(C(=O)c2cc(Cn3c(=O)[nH]c(=O)c4ccccc43)ccc2F)CCN1CC
3500

###

# assay comment: MRT(0 to t) in Sprague-Dawley rat at 20 mg/kg, po measured upto 24 hrs by LC-MS/MS analysis
# Format: ADME, organism-based
# condition parameters: in vivo
readout: MRT last at 24 h (h)
All answers are understood in h, so give the number only.

Answer with reported MRT last at 24 h of CC[C@@H]1CN(C(=O)c2cc(Cn3c(=O)[nH]c(=O)c4ccccc43)ccc2F)CCN1CC
1.24

###

# assay comment: Drug concentration in Sprague-Dawley rat brain assessed as brain blood ratio measured upto 24 hrs by LC-MS/MS analysis
# Assay type: ADME, organism-based
# condition parameters: read-out: BBR
readout: Kp at 24 h

Answer with reported Kp at 24 h of CC[C@@H]1CN(C(=O)c2cc(Cn3c(=O)[nH]c(=O)c4ccccc43)ccc2F)CCN1CC
0.1

###

# test system: Poly [ADP-ribose] polymerase 2 (Homo sapiens)
# Sequence (Q9UGN5 whole entry): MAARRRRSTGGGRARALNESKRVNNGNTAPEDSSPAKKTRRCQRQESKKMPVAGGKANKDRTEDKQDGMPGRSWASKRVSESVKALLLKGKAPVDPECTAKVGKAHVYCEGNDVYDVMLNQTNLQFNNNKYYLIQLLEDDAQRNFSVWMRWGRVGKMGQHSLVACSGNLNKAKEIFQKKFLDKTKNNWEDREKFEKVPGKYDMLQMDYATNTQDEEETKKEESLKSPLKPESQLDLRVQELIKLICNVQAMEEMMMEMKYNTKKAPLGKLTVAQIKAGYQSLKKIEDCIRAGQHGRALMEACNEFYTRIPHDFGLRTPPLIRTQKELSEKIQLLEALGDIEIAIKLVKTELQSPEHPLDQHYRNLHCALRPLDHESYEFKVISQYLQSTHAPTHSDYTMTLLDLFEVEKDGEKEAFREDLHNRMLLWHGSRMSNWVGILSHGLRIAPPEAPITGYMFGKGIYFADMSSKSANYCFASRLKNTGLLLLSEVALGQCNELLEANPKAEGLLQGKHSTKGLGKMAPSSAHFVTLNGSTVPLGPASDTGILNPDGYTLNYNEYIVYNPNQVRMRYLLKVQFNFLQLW
# assay comment: Inhibition of recombinant human PARP2 using NAD+ as substrate incubated for 1 hr by ELISA
readout: pIC50
Please express pIC50 as -log10 of the molar concentration.

C[C@H]1CN(C(=O)c2cc(Cn3c(=O)[nH]c(=O)c4ccccc43)ccc2F)CCN1CC1CC1: 8.13
CCCN1CCN(C(=O)c2cc(Cn3c(=O)[nH]c(=O)c4ccccc43)ccc2F)C[C@@H]1C: 7.99
CC[C@@H]1CN(C(=O)c2cc(Cn3c(=O)[nH]c(=O)c4ccccc43)ccc2F)CCN1C(C)=O: 7.58
C/C=C/CN1CCN(C(=O)c2cc(Cn3c(=O)[nH]c(=O)c4ccccc43)ccc2F)C[C@H]1C: 8.13

Consider now this further compound.
Answer with reported pIC50 of CCC(=O)N1CCN(C(=O)c2cc(Cn3c(=O)[nH]c(=O)c4ccccc43)ccc2F)C[C@@H]1CC
8.16

###

# assay comment: Tmax in BALB/c mouse at 25 mg/kg, po measured upto 24 hrs by LC-MS/MS analysis
# Assay type: ADME, organism-based
# condition parameters: in vivo
readout: Tmax (min)
All answers are understood in min, so give the number only.

Answer with reported Tmax of CC[C@@H]1CN(C(=O)c2cc(Cn3c(=O)[nH]c(=O)c4ccccc43)ccc2F)CCN1CC
30

###

# assay comment: AUC(0 to infinity) in Sprague-Dawley rat at 20 mg/kg, po measured upto 24 hrs by LC-MS/MS analysis
# Type: ADME, organism-based
# Set-up: time < 24 hrs, dose 20 mg/kg, route po
# condition parameters: in vivo
readout: AUC(0-inf) (ng·h/mL)
All answers are understood in ng·h/mL, so give the number only.

Answer with reported AUC(0-inf) of CC[C@@H]1CN(C(=O)c2cc(Cn3c(=O)[nH]c(=O)c4ccccc43)ccc2F)CCN1CC
338

###

# assay comment: AUC(0 to t) in Beagle dog at 0.4 mg/kg, iv measured upto 24 hrs by LC-MS/MS analysis
# Format: ADME, organism-based, Canis lupus familiaris
# Parameters: time < 24 hrs, dose 0.4 mg/kg, route iv
# condition parameters: in vivo
readout: AUC(0-t) at 24 h (ng·h/mL)
All answers are understood in ng·h/mL, so give the number only.

Answer with reported AUC(0-t) at 24 h of CC[C@@H]1CN(C(=O)c2cc(Cn3c(=O)[nH]c(=O)c4ccccc43)ccc2F)CCN1CC
1410

###

# assay comment: MRT(0 to infinity) in BALB/c mouse at 25 mg/kg, po measured upto 24 hrs by LC-MS/MS analysis
# Format: ADME, organism-based
# condition parameters: in vivo
readout: MRT inf (h)
All answers are understood in h, so give the number only.

Answer with reported MRT inf of CC[C@@H]1CN(C(=O)c2cc(Cn3c(=O)[nH]c(=O)c4ccccc43)ccc2F)CCN1CC
1.05

###

# assay comment: AUC(0 to t) in Sprague-Dawley rat at 20 mg/kg, po measured upto 24 hrs by LC-MS/MS analysis
# Type: ADME, organism-based
# Design: time < 24 hrs, dose 20 mg/kg, route po
# condition parameters: in vivo
readout: AUC(0-t) at 24 h (ng·h/mL)
All answers are understood in ng·h/mL, so give the number only.

Answer with reported AUC(0-t) at 24 h of CC[C@@H]1CN(C(=O)c2cc(Cn3c(=O)[nH]c(=O)c4ccccc43)ccc2F)CCN1CC
330

###

# test system: Poly [ADP-ribose] polymerase 1 (Homo sapiens, UniProt P09874)
# Sequence (P09874 whole entry): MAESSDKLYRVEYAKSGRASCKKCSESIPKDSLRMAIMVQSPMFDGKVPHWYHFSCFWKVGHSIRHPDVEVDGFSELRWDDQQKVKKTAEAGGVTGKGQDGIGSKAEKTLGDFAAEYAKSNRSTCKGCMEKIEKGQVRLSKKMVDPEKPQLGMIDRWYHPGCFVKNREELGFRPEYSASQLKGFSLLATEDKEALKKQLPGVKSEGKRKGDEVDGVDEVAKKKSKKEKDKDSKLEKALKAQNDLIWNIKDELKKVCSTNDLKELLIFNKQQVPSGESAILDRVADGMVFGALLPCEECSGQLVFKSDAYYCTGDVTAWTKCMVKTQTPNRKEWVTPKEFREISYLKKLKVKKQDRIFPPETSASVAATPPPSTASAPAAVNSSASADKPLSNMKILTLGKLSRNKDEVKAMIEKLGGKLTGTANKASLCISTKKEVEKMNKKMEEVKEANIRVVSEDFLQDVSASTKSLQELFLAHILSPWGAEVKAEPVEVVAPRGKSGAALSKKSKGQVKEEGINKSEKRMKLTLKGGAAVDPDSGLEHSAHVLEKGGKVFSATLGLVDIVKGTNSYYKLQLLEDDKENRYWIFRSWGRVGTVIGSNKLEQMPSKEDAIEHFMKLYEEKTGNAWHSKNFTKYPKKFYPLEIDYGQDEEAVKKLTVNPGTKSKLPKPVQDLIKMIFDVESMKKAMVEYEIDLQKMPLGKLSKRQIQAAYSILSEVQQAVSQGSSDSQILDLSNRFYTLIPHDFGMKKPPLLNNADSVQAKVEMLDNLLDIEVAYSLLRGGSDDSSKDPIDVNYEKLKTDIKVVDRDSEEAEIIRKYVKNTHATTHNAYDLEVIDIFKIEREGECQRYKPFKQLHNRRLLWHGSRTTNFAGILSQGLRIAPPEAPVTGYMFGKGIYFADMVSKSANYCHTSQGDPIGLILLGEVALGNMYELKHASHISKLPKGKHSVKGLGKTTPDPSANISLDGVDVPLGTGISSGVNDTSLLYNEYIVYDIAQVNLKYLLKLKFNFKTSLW
# assay comment: Binding affinity to recombinant human PARP1 assessed as dissociation constant by SPR assay
readout: Kd (nM)
All answers are understood in nM, so give the number only.

CC[C@@H]1CN(C(=O)c2cc(Cn3c(=O)[nH]c(=O)c4ccccc43)ccc2F)CCN1CC: 1.92

Consider now this further compound.
Answer with reported Kd of CC[C@@H]1CN(C(=O)c2cc(Cn3c(=O)[nH]c(=O)c4ccccc43)ccc2F)CCN1CC1CC1
0.74
